Recorded values, source patent US20210347882A1.

Molecular target: T1, human Resistin-Like Molecule Beta (human, UniProt Q9BQ08 24-111, limits assumed)
T1 construct: also called hRELMβ; RELMβ
T1 sequence (looked up): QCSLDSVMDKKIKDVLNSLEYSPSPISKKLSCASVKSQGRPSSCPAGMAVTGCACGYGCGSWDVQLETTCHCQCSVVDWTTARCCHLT
Test: QC ELISA, hRELMβ coated 0.5 µg/well, IgG supernatant, FITC-goat anti-human IgG
Description: As a result, 4 IgGs (Clones 1, 2, 13 and 18) bind to two targets positively. hRELMβ: 0.5 μg/well; hResistin: 5 μg/well; secondary antibody: FITC-goat anti-human IgG pAb.
MEASUREMENT KIND: binding result

Clone 2 rIgG (antibody, V domains shown, Fully human IgG1 converted from scFv, tested as supernatant of expressing cells) VH: EVQLLESGGGLVQPGGSLRLSCAASGFTFSSYAMSWVRQAPGKGLEWVSTITTTGTATWYADSVKGRFTISRDNSKNTLYLQMNSLRAEDTAVYYCAKTLQRFDYWGQGTLVTVSS VL: DIQMTQSPSSLSASVGDRVTITCRASQSISSYLNWYQQKPGKAPKLLIYEASVLQSGVPSRFSGSGSGTDFTLTISSLQPEDFATYYCQQPRSLPMTFGQGTKVEIKR ... binds
Clone 18 rIgG (antibody, V domains shown, Fully human IgG1 converted from scFv, tested as supernatant of expressing cells) VH: EVQLLESGGGLVQPGGSLRLSCAASGFTFSSYAMSWVRQAPGKGLEWVSTIHKTGSPTYYADSVKGRFTISRDNSKNTLYLQMNSLRAEDTAVYYCAKSLKYFDYWGQGTLVTVSS VL: DIQMTQSPSSLSASVGDRVTITCRASQSISSYLNWYQQKPGKAPKLLIYRASHLQSGVPSRFSGSGSGTDFTLTISSLQPEDFATYYCQQPRSLPATFGQGTKVEIKR ... binds
Clone 13 rIgG (antibody, V domains shown, Fully human IgG1 converted from scFv, tested as supernatant of expressing cells; Possibly the same clone as Ab13) VH: EVQLLESGGGLVQPGGSLRLSCAASGFTFSSYAMSWVRQAPGKGLEWVSSIYPQGLRTYYADSVKGRFTISRDNSKNTLYLQMNSLRAEDTAVYYCAKNLAKFDYWGQGTLVTVSS VL: DIQMTQSPSSLSASVGDRVTITCRASQSISSYLNWYQQKPGKAPKLLIYRASTLQSGVPSRFSGSGSGTDFTLTISSLQPEDFATYYCQQPRALPGTFGQGTKVEIKR ... binds
